Data provenance: a melting point compilation (Tetko et al.; mined from patent text by program, amines drawn as free bases though some values may be those of a salt)

I'd appreciate it if you could supply melting point values for the items below.

COc1ccc(-c2nc3c(C(=O)NC4CN5CCC4CC5)cccc3o2)cc1 (stereo not given) = 108 to 109 °C
CCOC(=O)C1CC2C(=O)N=C(C(C)C)C=C2S1=N (stereo not given) = 182 to 183 °C
COc1cc(C(C)C)c(Oc2cnc(NC(CO)CO)nc2N)cc1I = 158 to 159 °C

Dear reader, for each entry below, please note its melting point.
1. Nc1c2c(=O)[nH]c(C(F)(F)F)nc2nn1-c1ccccc1
2. CN1CCN(c2cc(Cl)cc3c2c(=O)n(Cc2ccccc2F)c(=O)n3Cc2ccccc2)CC1

# output
267 to 269 °C
147 to 149 °C
